Measured values drawn from PubChem BioAssay AID1919006 for this set.

system: 885512-296-R-J2-PDC complex spheroid growth, % test/control; experiment: Anticancer human tumor 885512-296-R-J2-PDC patient-derived breast carcinoma cell line growth inhibition [AhR]; conditions: second compound 0.316 µM; first compound 0.1 µM; active = viability on the fitted dose curve at most 10% of control; inactive = the rest;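 note: spheroids exposed to compounds for seven days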
Log the outcome using a class from active, inactive

Previously resolved entries follow.
Nc1ccn(C2OC(CO)C(O)C2(F)F)c(=O)n1 (stereo not drawn) + CC(CO)NC(=O)c1cc(-c2ccc(Cl)cc2)nn(-c2cnn(C)c2)c1=O	active
CC1COCCN1c1cc(C2(S(C)(=N)=O)CC2)nc(-c2ccnc3[nH]ccc23)n1 (stereo not drawn) + Cc1ccccc1N=Nc1ccc(NC(=O)c2ccnn2C)c(C)c1	inactive
CC1(C)CCC(CN2CCN(c3ccc(C(=O)NS(=O)(=O)c4ccc(NCC5CCOCC5)c([N+](=O)[O-])c4)c(Oc4cnc5[nH]ccc5c4)c3)CC2)=C(c2ccc(Cl)cc2)C1 + CC(CO)NC(=O)c1cc(-c2ccc(Cl)cc2)nn(-c2cnn(C)c2)c1=O	inactive
CC1(C)CCC(CN2CCN(c3ccc(C(=O)NS(=O)(=O)c4ccc(NCC5CCOCC5)c([N+](=O)[O-])c4)c(Oc4cnc5[nH]ccc5c4)c3)CC2)=C(c2ccc(Cl)cc2)C1 + Cc1ccccc1N=Nc1ccc(NC(=O)c2ccnn2C)c(C)c1	inactive
O=C(C=Cc1cccc(S(=O)(=O)Nc2ccccc2)c1)NO + Cc1cncc(-c2nc(NCCc3c[nH]c4ccccc34)c3ncn(C(C)C)c3n2)c1	inactive

## Input Assay outcome for Nc1ccccc1NC(=O)c1ccc(CNC(=O)OCc2cccnc2)cc1 + Cc1ccccc1N=Nc1ccc(NC(=O)c2ccnn2C)c(C)c1 : what was it?
## Output inactive

## Input Assay outcome for CC1COCCN1c1cc(C2(S(C)(=N)=O)CC2)nc(-c2ccnc3[nH]ccc23)n1 (stereo not drawn) + Cc1cncc(-c2nc(NCCc3c[nH]c4ccccc34)c3ncn(C(C)C)c3n2)c1 : what was it?
## Output inactive

## Input Assay outcome for COc1cccc2c1C(=O)c1c(O)c3c(c(O)c1C2=O)CC(O)(C(=O)CO)CC3OC1CC(N)C(O)C(C)O1 (stereo not drawn) + Cc1cncc(-c2nc(NCCc3c[nH]c4ccccc34)c3ncn(C(C)C)c3n2)c1 : what was it?
## Output inactive

## Input Assay outcome for O=C(C=Cc1cccc(S(=O)(=O)Nc2ccccc2)c1)NO + Cc1ccccc1N=Nc1ccc(NC(=O)c2ccnn2C)c(C)c1 : what was it?
## Output inactive

## Input Assay outcome for O=C(c1cc(Cc2n[nH]c(=O)c3ccccc23)ccc1F)N1CCN(C(=O)C2CC2)CC1 + CC(CO)NC(=O)c1cc(-c2ccc(Cl)cc2)nn(-c2cnn(C)c2)c1=O : what was it?
## Output inactive

## Input Assay outcome for COc1cccc2c1C(=O)c1c(O)c3c(c(O)c1C2=O)CC(O)(C(=O)CO)CC3OC1CC(N)C(O)C(C)O1 (stereo not drawn) + Cc1ccccc1N=Nc1ccc(NC(=O)c2ccnn2C)c(C)c1 : what was it?
## Output inactive

## Input Assay outcome for COc1ccc([C@@H](O)c2cc(-c3ncnc4cc(N5CCOCC5)ccc34)c(F)cc2Cl)nn1 + CC(CO)NC(=O)c1cc(-c2ccc(Cl)cc2)nn(-c2cnn(C)c2)c1=O : what was it?
## Output inactive

## Input Assay outcome for COc1cccc2c1C(=O)c1c(O)c3c(c(O)c1C2=O)CC(O)(C(=O)CO)CC3OC1CC(N)C(O)C(C)O1 (stereo not drawn) + CC(CO)NC(=O)c1cc(-c2ccc(Cl)cc2)nn(-c2cnn(C)c2)c1=O : what was it?
## Output inactive
